- protocolDescription: Stability in rat liver microsomes assessed as intrinsic clearance at 1 uM incubated for 30 mins by LC-MS/MS analysis
- Format: ADME, Microsome
- testParameters: read-out: CLH
propertyMeasured: microsomal CLint at 1 µM

Prompt line: Report microsomal CLint at 1 µM, nothing else, for this molecule: `C[C@@H]1COCCN1c1nc(N2CCN(C)CC2)nc2sc(-c3cc[nH]n3)nc12`
Response line: > 924 µL/min/mg

Prompt line: // fetch microsomal CLint at 1 µM given entry `CC(C)c1nc(N2CCOC[C@H]2C)c2nc(-c3cc[nH]n3)sc2n1`
Response line: 104 µL/min/mg

Prompt line: State its microsomal CLint at 1 µM: `C[C@@H]1COCCN1c1nc(CN2CCOCC2)nc2sc(-c3cc[nH]n3)nc12`
Response line: > 924 µL/min/mg
